Assay: LogP, partition coefficient in 1-octanol
Assay type: physicochemical
Settings: 1-octanol partition
measure: logP

1. COC[C@@H]1O[C@H](n2ccc(N(C)C)nc2=O)CS1: 0.09
2. CCOC[C@H]1O[C@@H](n2cc(C)c(=O)n(CC)c2=O)C[C@@H]1N=[N+]=[N-]: 1.17
3. CCOC[C@@H]1C=C[C@H](n2cc(C)c(=O)n(CC)c2=O)O1: 1.35
4. COCC1C=C[C@H](n2cc(C)c(=O)n(C)c2=O)O1 (some centres unmarked): 0.63
5. Nc1ccn([C@@H]2CS[C@H](CO)O2)c(=O)n1 [reference compound]: -1.1
6. Cc1cn([C@H]2C=C[C@@H](CO)O2)c(=O)[nH]c1=O: -0.23
7. CCOC[C@H]1O[C@@H](n2ccc(N(CC)CC)nc2=O)CS1 (stereo in doubt): 1.16
8. COC[C@H]1O[C@@H](n2cc(C)c(=O)n(C)c2=O)C[C@@H]1N=[N+]=[N-]: 0.45
9. COC[C@@H]1C=C[C@H](n2cc(C)c(=O)[nH]c2=O)O1: 0.41
10. Cc1cn([C@H]2C[C@H](N=[N+]=[N-])[C@@H](CO)O2)c(=O)[nH]c1=O [AZT, 3′-azido-2′,3′-dideoxythymidine, reference compound]: -0.41
11. CCn1c(=O)c(C)cn([C@H]2C=C[C@@H](COC)O2)c1=O: 0.99

----------
Assay: Solubility in water
Type: physicochemical
Conditions: aqueous buffer; Water pH 7.2 at 37° C.
measure: solubility (µg/mL)

1. COC[C@@H]1C=C[C@H](n2cc(C)c(=O)[nH]c2=O)O1: 30000
2. CCOC[C@@H]1C=C[C@H](n2cc(C)c(=O)n(CC)c2=O)O1: 90
3. CCOC[C@H]1O[C@@H](n2cc(C)c(=O)n(CC)c2=O)C[C@@H]1N=[N+]=[N-]: 10
4. Nc1ccn([C@@H]2CS[C@H](CO)O2)c(=O)n1 [reference compound]: 64000
5. COC[C@H]1O[C@@H](n2cc(C)c(=O)n(C)c2=O)C[C@@H]1N=[N+]=[N-]: 940
6. COC[C@@H]1O[C@H](n2ccc(N(C)C)nc2=O)CS1: 7000
7. CCOC[C@H]1O[C@@H](n2ccc(N(CC)CC)nc2=O)CS1 (stereo in doubt): 1600
8. COCC1C=C[C@H](n2cc(C)c(=O)n(C)c2=O)O1 (stereo partly shown): 10000
9. Cc1cn([C@H]2C=C[C@@H](CO)O2)c(=O)[nH]c1=O: 106000
10. CCn1c(=O)c(C)cn([C@H]2C=C[C@@H](COC)O2)c1=O: 1500
